Record form. Attribute: Ki. Fill in for each entry.
molecular target: α1A-adrenoceptor (Rattus norvegicus); construct: from tissue; host or cells: rat submaxillary gland membranes; test: Receptor binding assay, [3H]prazosin, rat submaxillary membranes; conditions: rat submaxillary membranes, 0.5 nM [3H]prazosin; read-out: RBA (Ki nM) α1A
Sequence (P43140 whole entry): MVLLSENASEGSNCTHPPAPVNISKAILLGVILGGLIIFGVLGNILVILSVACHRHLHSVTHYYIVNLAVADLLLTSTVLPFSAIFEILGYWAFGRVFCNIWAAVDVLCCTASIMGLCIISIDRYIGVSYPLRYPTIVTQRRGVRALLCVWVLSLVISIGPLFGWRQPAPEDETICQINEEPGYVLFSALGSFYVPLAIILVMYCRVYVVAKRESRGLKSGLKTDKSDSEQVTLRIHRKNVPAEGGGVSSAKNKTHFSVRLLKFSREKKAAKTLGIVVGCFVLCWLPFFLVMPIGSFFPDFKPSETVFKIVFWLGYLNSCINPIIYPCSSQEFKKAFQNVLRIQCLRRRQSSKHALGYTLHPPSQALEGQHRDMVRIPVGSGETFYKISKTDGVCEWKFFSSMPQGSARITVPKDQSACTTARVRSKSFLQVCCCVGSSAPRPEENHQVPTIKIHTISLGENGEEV
Write it as a number; the unit nM goes unstated.

Request: // lookup Ki for O=C1CCCC(=O)N1CCCN1CCN(c2cccc(C(F)(F)F)c2)CC1 [Compound 16]
Response: 345

Request: // lookup Ki for O=C1CCC(=O)N1CCCN1CCN(c2cccc(C(F)(F)F)c2)CC1 [Compound 3]
Response: 1500

Request: // lookup Ki for O=C1CCC(=O)N1CCCN1CCN(c2ccccn2)CC1 [Compound 4]
Response: 1660

Request: // lookup Ki for O=C1CCCC(=O)N1CCCN1CCN(c2ccccn2)CC1 [Compound 19]
Response: 164

Request: // lookup Ki for COc1ccccc1N1CCN(CCN2C(=O)CCC2=O)CC1 [Compound 10]
Response: 1600

----------
Target: α1D-adrenoceptor (aorta) (Rattus norvegicus)
Construct: Aorta, prostate and spleen tissues were isolated from urethane anaesthetized (1.5 gm/kg) male wistar rats; from tissue; host or cells: isolated aorta of male Wistar rats
Sequence (P23944 1-561): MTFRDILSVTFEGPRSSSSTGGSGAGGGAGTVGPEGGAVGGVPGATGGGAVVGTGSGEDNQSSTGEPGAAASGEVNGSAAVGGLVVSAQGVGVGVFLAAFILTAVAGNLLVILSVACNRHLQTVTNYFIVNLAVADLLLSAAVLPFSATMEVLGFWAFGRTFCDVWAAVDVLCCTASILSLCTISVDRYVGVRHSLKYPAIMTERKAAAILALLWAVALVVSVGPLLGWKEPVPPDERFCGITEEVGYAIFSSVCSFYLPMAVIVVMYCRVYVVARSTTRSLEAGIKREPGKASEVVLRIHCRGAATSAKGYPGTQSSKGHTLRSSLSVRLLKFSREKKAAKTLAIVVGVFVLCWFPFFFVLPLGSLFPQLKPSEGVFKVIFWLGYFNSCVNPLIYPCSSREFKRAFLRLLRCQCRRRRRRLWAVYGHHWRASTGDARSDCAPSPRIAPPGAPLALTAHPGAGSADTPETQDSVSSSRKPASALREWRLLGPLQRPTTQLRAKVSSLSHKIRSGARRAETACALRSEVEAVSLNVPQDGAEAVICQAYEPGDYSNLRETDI
Assay: In vitro functional assay, norepinephrine-induced contraction of isolated aorta
Format: cell-based
Details: rat aorta, norepinephrine; read-out: In Vitro Functional Assay (pKB) α1D (converted)
experimental_readout: Kb (nM)
Write it as a number; the unit nM goes unstated.

Request: // lookup Kb for COc1ccccc1N1CCN(CCCN2C(=O)CCCC2=O)CC1 [Compound 13]
Response: 12.6

Request: // lookup Kb for O=C1CCCC(=O)N1CCCN1CCN(c2ccccn2)CC1 [Compound 19]
Response: 200

Request: // lookup Kb for O=C1CCC(=O)N1CCCN1CCN(c2ccc(F)cc2)CC1 [Compound 1]
Response: 158

Request: // lookup Kb for O=C1CCC(=O)N1CCCN1CCN(c2ncccn2)CC1 [Compound 6]
Response: 316

Request: // lookup Kb for Cc1ccccc1N1CCN(CCCN2C(=O)CCCC2=O)CC1 [Compound 18]
Response: 3.16

Request: // lookup Kb for O=C1CCCC(=O)N1CCCN1CCN(c2ncccn2)CC1 [Compound 22]
Response: 100

Request: // lookup Kb for O=C1CCCC(=O)N1CCCN1CCN(c2ccc(Cl)cc2)CC1 [Compound 15]
Response: 631

Request: // lookup Kb for O=C1CCCC(=O)N1CCCN1CCN(c2ccc(F)cc2)CC1 [Compound 14]
Response: 79.4

Request: // lookup Kb for O=C1CCC(=O)N1CCCN1CCN(c2ccccc2)CC1 [Compound 8]
Response: 251

Request: // lookup Kb for Cc1ccc(N2CCN(CCCN3C(=O)CCC3=O)CC2)cc1C [Compound 7]
Response: 316
